Test system: OVCAR-5 ovarian
Assay: NCI tumour cell line growth inhibition, 48 h
TGI reference

molecule	unit_text	lt_gt_eq	TGI
Brc1ccc2[nH]cc(-c3nc(-c4c[nH]c5ccccc45)cs3)c2c1	µM	=	5.37
COc1ccc2c3c1OC1c4[nH]c5ccccc5c4CC4(O)C(C2)N(C)CCC314 (stereo not given)	µM	>	100
CCCCN(Cc1ccc(F)cc1)c1ccc(CO)c(Cl)c1	µM	=	2.9
COc1cc(-c2cn(-c3ccc(Cl)cc3)c(C)c2C(=O)C(F)(F)F)cc(OC)c1OC	µM	>	100
C[C@H]1[C@H](C)CC[C@]2(C(=O)O)CC[C@]3(C)C(=CC[C@@H]4[C@@]5(C)C/C(=C/c6cccnc6)[C@H](O)C(C)(C)[C@@H]5CC[C@]43C)[C@H]12	µM	=	64.8

---

log10(TGI) reference
Test system: HCC-2998 colon
Experiment: NCI tumour cell line growth inhibition, 48 h
measured_attribute: log10(TGI) (log10 of the value in µM)

compound	measured_attribute	value
C=C1C(=O)O[C@H]2[C@H]1CC/C(COC(=O)N1CCC[C@H]1C(=O)Nc1ccc(OC)c(C(N)=O)c1O)=C\CC[C@@]1(C)O[C@@H]21	log10(TGI)	1.37
COc1cc(C2c3cc4c(cc3[C@@H](Nc3cccc(C(C)=O)c3)C3COC(=O)[C@H]23)OCO4)cc(OC)c1O (stereo partly drawn)	log10(TGI)	0.51
COc1ccc2oc3cccc(NCCN(C)C)c3c(=O)c2c1	log10(TGI)	1.34
CCC(C)C(=O)c1c(O)c(C/C=C(\C)CCC=C(C)C)c(O)c2c(C(O)CC)cc(=O)oc12 (stereo not drawn)	log10(TGI)	0.32
COc1cc(Nc2nc(N[C@H]3CCCC[C@@H]3N)nc3cc[nH]c(=O)c23)cc(OC)c1	log10(TGI)	1.06
CN(C)c1ccc(N=Nc2ccccn2)cc1	log10(TGI)	1.78
CC[C@@H](/C=C\CCC1(C[C@H](O)CCC=C(C)C)OCCO1)O[Si](C(C)C)(C(C)C)C(C)C	log10(TGI)	1.50

---

TGI reference
System: SK-OV-3 ovarian
Assay: NCI tumour cell line growth inhibition, 48 h

compound	measured_target	TGI
COCc1cc2c(cc1/C=C/[N+](=O)[O-])OCO2	SK-OV-3 ovarian	31.9 µM
CC[n+]1c(/C=C/c2ccc(N(CCCl)CCCl)cc2)ccc2cc(NC(=O)/C=C/c3ccccc3)ccc21	SK-OV-3 ovarian	2.81 µM
COC(=O)c1c(C)cccc1CC1Cc2c(C)cccc2C1=O (stereo not given)	SK-OV-3 ovarian	> 100 µM
CC(=O)[O-].CC(=O)[O-].[NH2-].[Pt+2].c1ccc2cnccc2c1	SK-OV-3 ovarian	> 100 µM
CN(C)C(=S)N=Nc1c(O)[nH]c2ccccc12	SK-OV-3 ovarian	13.9 µM
CC(=O)Nc1ccc2c(c1)oc(=O)c1cc(NC(C)=O)ccc12	SK-OV-3 ovarian	> 100 µM
CC[C@H](CC#N)OC(=O)N[C@@H](C)c1cccc(NC(=O)Nc2ccc(-c3cnco3)c(OC)c2)c1	SK-OV-3 ovarian	> 63.8 µM
O=C(CC(C(=O)c1ccoc1)c1ccco1)c1ccco1 (stereo not given)	SK-OV-3 ovarian	> 100 µM
C=C1C(=O)O[C@H]2[C@H]1CC/C(COC(=O)N1CCC[C@H]1C(=O)Nc1ccc(OC)c(C(N)=O)c1O)=C\CC[C@@]1(C)O[C@@H]21	SK-OV-3 ovarian	65.6 µM
COc1ccc2c(c1)c1c(n2CCN2CCCCC2)-c2ccccc2CC1	SK-OV-3 ovarian	40.9 µM
COC(=O)CCC12CCC(O1)c1ccccc12 (stereo not given)	SK-OV-3 ovarian	> 100 µM
CCCCn1cnc2c(SC)ncnc21	SK-OV-3 ovarian	> 100 µM
Cn1nc(-c2ccccc2)c(C(=O)/C=C/c2ccccc2)c(N2CCOCC2)c1=O	SK-OV-3 ovarian	81 µM
CCCCCCCCCCCCCCCC(=O)OCC1OC(n2c(O)c(N=NC(N)=S)c3ccc([N+](=O)[O-])cc32)C(OC(C)=O)C1OC(C)=O (stereo not given)	SK-OV-3 ovarian	> 100 µM
COc1cc(Nc2nc(N[C@H]3CCCC[C@@H]3N)nc3cc[nH]c(=O)c23)cc(OC)c1	SK-OV-3 ovarian	17.5 µM
CNC1=CC(=O)C2=C(C1=O)[C@H]1CC[C@]3(C)C(=O)CC[C@H]3[C@@H]1CC2	SK-OV-3 ovarian	> 100 µM
COc1cc[nH]c1/C=C1\C(=O)Nc2ccc(F)c(I)c21	SK-OV-3 ovarian	> 25 µM
C1=C\CCCCN2C[C@H]3CCCC/C=C\CCCCN4CC[C@@H]([C@H](CCCCCC/1)C4)[C@H](C3)C2	SK-OV-3 ovarian	22.8 µM
O=C(O)c1cc(=O)c2[nH]c3ccccc3c2s1	SK-OV-3 ovarian	> 100 µM
CN1CN(c2ccccc2)C2(CCN(CCc3csc4ccccc34)CC2)C1=O	SK-OV-3 ovarian	76.9 µM

---

TGI reference
Test system: UO-31 renal
Assay: NCI tumour cell line growth inhibition, 48 h

molecule	TGI
COC(=O)CNC(=O)[C@@H](OC)[C@@H]1Cc2cc3cc(OC4CC(OC5CC(O)C(O)C(C)O5)C(O)C(C)O4)c(C)c(O)c3c(O)c2C(=O)[C@H]1OC1CC(OC2CC(OC3CC(C)(O)C(O)C(C)O3)C(O)C(C)O2)C(O)C(C)O1 (stereo not given in full)	12.8 µM
CC(C)C1OC(=O)/C=C/C=C/C=C/C=C/C=C/CC(O)CC(O)CC(O)CC(O)CC(O)CC(O)CC(O)CC(O)/C=C/C1C (stereo not given)	> 100 µM
N#CC1(C#N)NC(c2ccsc2)C(C#N)(C#N)NC1c1ccsc1 (stereo not given)	> 100 µM
Cn1c(-c2cccs2)cc(-c2cccs2)c1-c1ccsc1	> 100 µM
Clc1ccc(C2NN=C3c4ccccc4OCC32)cc1 (stereo not given)	41.4 µM
CC(=O)c1cc([N+](=O)[O-])ccc1OCC(=O)O	> 100 µM
COc1ccccc1N1CCN(Cn2c(=O)oc3cccnc32)CC1	> 100 µM
NCc1ccc(C(=O)O)cc1	> 100 µM
O=C(CCl)N1c2ccccc2Sc2c1ccc1ccccc21	3.8 µM
CCO/N=[N+](\[O-])N(CC)CC	> 100 µM
C=C1C(=O)O[C@H]2[C@H]1CC/C(COC(=O)N1CCC[C@H]1C(=O)Nc1ccc(OC)c(C(N)=O)c1O)=C\CC[C@@]1(C)O[C@@H]21	8.97 µM
CC1S(=O)(=O)OCCOS1(=O)=O	> 100 µM
N#Cc1c(NC(=S)NC(=O)c2ccccc2)nc2c(c1-c1ccccc1)CCCC2	> 100 µM
O=[N+]([O-])c1cccnc1NCC1(CO)CC(Cc2ccccc2)C1 (stereo not given)	> 100 µM
Cc1cccc(NC(=S)N=Nc2c(O)[nH]c3ccccc23)c1	> 100 µM
CN=S(=O)(c1ccccc1)c1ccccc1	> 100 µM
CCC(CC)n1c(C)nc2c1C(=O)c1ccccc1C2=O	> 100 µM
COc1cc[nH]c1/C=C1\C(=O)Nc2ccc(F)c(I)c21	> 25 µM
CC[C@@H](/C=C\CCC1(C[C@H](O)CCC=C(C)C)OCCO1)O[Si](C(C)C)(C(C)C)C(C)C	34.3 µM
COc1cccc(NC(=O)CC(=O)N2N=C(C)C(N=Nc3ccc(S(=O)(=O)c4ccc(N=NC5C(=O)N(C(=O)CC(=O)Nc6cccc(OC)c6)N=C5C)cc4)cc3)C2=O)c1 (stereo not given)	> 100 µM
C[Si](C)(OCCS(=O)(=O)O)C1S(=O)(=O)OCCOS1(=O)=O	> 100 µM
CCCCn1cnc2c(SC)ncnc21	> 100 µM
c1cnc2[nH]cc(-c3csc(-c4cn(CCCCN5CCOCC5)c5ccccc45)n3)c2c1	2.53 µM
CCN(CC)C(=S)SS(=O)(=O)c1ccc([N+](=O)[O-])cc1	47 µM
CC(=O)[O-].CC(=O)[O-].[NH2-].[Pt+2].c1ccc2cnccc2c1	97.5 µM
COc1ccc(C(C#N)NNc2nc(C)cc(=O)[nH]2)cc1OC (stereo not given)	> 100 µM
c1cc2c(c(-c3c4ccccc4nc4ccccc34)c1)CC1(CC2)OCCO1	> 100 µM
CC(=O)OCC1=C(C)C(OC(=O)C(OC(C)=O)[C@@H](NC(=O)c2ccccc2)c2ccccc2)CCC1(C)C (stereo not given in full)	> 100 µM
CN(C)c1ccc(/C=C/C=C(/C#N)c2ccccc2)cc1	> 100 µM
COc1ccc(NC(=O)c2cc(OC)c(OC)c(OC)c2)cc1	> 100 µM
COC(=O)CCC12CCC(O1)c1ccccc12 (stereo not given)	> 100 µM
CN(C)c1ccc(N=Nc2ccccn2)cc1	79.8 µM
CN(C)Cc1cc(N=Nc2ccccc2)cc(CN(C)C)c1O	> 100 µM
COc1cc(C2c3cc4c(cc3[C@@H](Nc3cccc(C(C)=O)c3)C3COC(=O)[C@H]23)OCO4)cc(OC)c1O (stereo not given in full)	6.89 µM
CC(=O)n1c2ccccc2c2nc3nc(Oc4ccc(C)cc4)c4ccccc4c3cc21	> 100 µM
NC(=O)N1N=C2c3ccccc3SC[C@H]2[C@@H]1c1ccccc1	82.9 µM
CCN(Cc1ccccc1OC)c1ccc(CO)c(Cl)c1	24.7 µM
CC(C)C1CC(O)O[C@@H]([C@@H](C)[C@H]2CC(=O)[C@@H]3[C@@H]4[C@@H](O)[C@H](O)[C@H]5[C@@H](O)[C@H](O)CC[C@]5(C)[C@H]4CC[C@]23C)C1 (stereo not given in full)	> 100 µM
Oc1ccc(CCCCCCc2ccc(O)cc2)cc1	15 µM
Cc1ccc(NC(=O)/C(=N\Nc2ccc([N+](=O)[O-])cc2[N+](=O)[O-])C2C(=O)NC(=O)NC2=O)cc1	> 100 µM
